- Tested on: SR leukemia
- test_description: NCI-60 one-dose screen, 48 h
- cond: 10 µM unless noted
The panel holds about 83,000 compounds, 20% with a hit somewhere; the sample as a whole holds those more often. Activity calls are given as the source filed them. Rule for the calls: active = growth percent below 10; inactive = the rest.
Possible outcomes: 1 = active, 0 = inactive

# compound, assigned_label
records = [
    ("COc1ccccc1/C=C1\\COc2ccc(O)c(O)c2C1=O", 1),
    ("CN(Cc1ccccc1)c1nc(Cl)c(C2CC(c3ccc(F)cc3)=NN2C=O)s1 (stereo not given)", 0),
    ("CCCCC#Cc1c(/C=C(\\CCCC)SCC)n(C)c(=O)[nH]c1=O", 0),
    ("CN(C)C(=O)c1cc2cnc(Nc3ccc(-c4csc5c(=S)cc(N6CCOCC6)oc45)cc3)nc2n1C1CCCC1", 1),
    ("COc1ccc(-c2nc(Cl)c3c(C)nn(-c4ccc(F)cc4)c3n2)cc1", 0),
    ("Cc1ccc(S(=O)(=O)OC[C@@]2(C)CC[C@]3(C)CC[C@]4(C)C(=CC[C@@H]5[C@@]6(C)CCCNC(C)(C)[C@@H]6CC[C@]54C)[C@@H]3C2)cc1", 1),
    ("Nc1n[nH]c2cccc(C#Cc3cccc(C(=O)Nc4ccc(CN5CCOCC5)c(C(F)(F)F)c4)c3)c12", 0),
    ("Cc1ccc(C(=O)Nc2nc3c(s2)CN(Cc2ccccc2)CC3)cn1", 0),
    ("N#CC1=C(N)Oc2c(sc3c(Br)cccc23)C1c1ccccn1 (stereo not given)", 0),
    ("Nc1nc(N)c2c(n1)NC(c1cccc(Nc3ccnc4cc(C(F)(F)F)ccc34)c1)CC(c1ccc(F)cc1)=N2 (stereo not given)", 1),
    ("Cn1cc(C2=C(c3cccc4ccccc34)C(=O)NC2=O)c2cc(Br)ccc21", 0),
    ("CC(=O)c1c(C)nc(SCC(=O)Nc2ccc(Cl)cc2)n1-c1ccc(Cl)cc1", 0),
    ("CCCCCO/N=C\\c1c2c(O)c3c(O)c(C)c4c(c3c1O)C(=O)C(C)(O/C=C\\C(OC)C(C)C(OC(C)=O)C(C)C(O)C(C)C(O)C(C)/C=C\\C=C(\\C)C(=O)N2)O4 (stereo not given)", 0),
    ("CN1CCN(C(=O)OCc2nc3c(N4CCOCC4)nc(Cl)nc3n2C)CC1", 1),
    ("Cc1ccc(C(=O)Nc2ccc(CN3CCN(C)CC3)c(C(F)(F)F)c2)cc1C#Cc1cnc(N)cc1C#N", 1),
]
